test system: SK-BR-3; test: Cytotoxicity against human SKBR3 cells after 48 hrs by MTT assay; type: functional, cell-based; details: SK-BR-3, 48 h
Readings of IC50 for the listed molecules
property_label: IC50 (µM)

>>> numeric_result("CC(=O)O[C@H]1C=CC(=O)O[C@@H]1[C@H]1N=C(Cc2ccccc2)O[C@@H]1c1ccccc1")
35.2
>>> numeric_result("CC(=O)O[C@H]1C=CC(=O)O[C@@H]1[C@@H](NC(=O)Cc1ccccc1)[C@H](O)c1ccccc1")
38.8
>>> numeric_result("CC(=O)O[C@H]1C=CC(=O)O[C@@H]1[C@H]1N=C(C)O[C@@H]1c1ccccc1")
7.26
>>> numeric_result("C/C=C/C1=N[C@H]([C@H]2OC(=O)C=C[C@@H]2OC(C)=O)[C@@H](c2ccccc2)O1")
18
>>> numeric_result("CC(=O)O[C@H]1C=CC(=O)O[C@@H]1[C@@H]1N=C(c2ccccc2)O[C@@H]1c1ccccc1")
3.65
